SGCB cell-surface expression functional score (log10) reference
B1: library; numbered along this chain (parent)
chain: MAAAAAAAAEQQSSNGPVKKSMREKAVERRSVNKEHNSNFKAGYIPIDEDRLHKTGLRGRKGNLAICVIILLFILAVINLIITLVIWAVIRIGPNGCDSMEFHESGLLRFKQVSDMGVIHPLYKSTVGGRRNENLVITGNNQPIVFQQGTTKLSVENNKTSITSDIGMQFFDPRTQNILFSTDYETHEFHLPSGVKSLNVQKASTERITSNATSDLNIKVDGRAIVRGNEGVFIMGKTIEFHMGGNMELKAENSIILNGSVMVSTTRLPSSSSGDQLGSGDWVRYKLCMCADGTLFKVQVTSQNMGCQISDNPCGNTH

- Variants of: B1
- assayMethodText: SGCB cell-surface expression functional score (HA stain, bin4 vs bin1, normalised to synonymous) (log10 ratio); higher = more cell-surface SGCB (functional)
Give the figure only, with no unit attached.

Reference set (4 entries):
S273N: 0.34
L135I: -0.47
S181T: -0.51
C290L: -0.51

Form field: reported SGCB cell-surface expression functional score (log10) of `F171E`
-1.22

Any idea what SGCB cell-surface expression functional score (log10) was measured for `G222L` ?
0.26

Name the recorded SGCB cell-surface expression functional score (log10) for `L135A` .
-1.13

GET /values?readout=SGCB cell-surface expression functional score (log10)&item= `A42H`
-0.08

Entry under review: `L122S` . Reported SGCB cell-surface expression functional score (log10)?
0.31

Find the recorded SGCB cell-surface expression functional score (log10) belonging to `M168A` and report it.
-1.55

Any idea what its SGCB cell-surface expression functional score (log10) is? The variant is `K237C`
0.61
